tested on: EKVX NSCLC; assay: NCI-60 one-dose screen, 48 h; conditions: 10 µM unless noted
This is part of a sample that, as a whole, favours compounds with a hit. Of some 83,000 tested, about 20% had one in any assay. Activity calls are given as the source filed them. How the source made its calls: active means growth percent below 10; inactive means the rest.
Hello, when you answer, please use one of the following outcomes: active, inactive

Could you kindly confirm the outcome this assay logged for Cc1nn(-c2ccccc2)c(N2CCOCC2)c1-c1nc2ccc([N+](=O)[O-])cc2[nH]1 ? inactive

What is the recorded call for this molecule in the test? Cc1cccc(C[C@H](NC(=O)Nc2ccc(C)cc2F)C(=O)N[C@@H]2C(=O)N3C[C@H](O)C[C@H]3C(=O)N3CCN(C)C[C@H]3C(=O)N[C@@H](C)C(=O)N3C[C@H](C)C[C@H]3C(=O)O[C@H]2C)c1 inactive

What classification did C[C@@H](NC(=O)[C@@H](CC(=O)N1CCC(N2CCCCC2)CC1)N1C(=O)[C@@H](N2C(=O)OC[C@@H]2c2ccccc2)[C@H]1/C=C/c1cccc(Cl)c1)c1ccccc1 end up with in this test? inactive

Returns: the outcome recorded for O=C(NCCCNC(=O)OCc1ccc2c(Br)cc(Br)c(O)c2n1)OCc1ccc2c(Br)cc(Br)c(O)c2n1 in this assay. active

I'd appreciate the recorded outcome for CCCCOC(=O)c1cccc([N+](=O)[O-])c1 from this test. inactive

Field: outcome | Entry: COc1cc(NCc2cn(-c3ccc(C(=O)O)cc3)nc2-c2ccc(C(=O)O)cc2)cc(OC)c1OC inactive

Lab log entry: CCCCCCCCCCCCCCCCCCNC(=S)N/N=C/c1ccc(OC)c(OC)c1 — outcome as called in the assay? inactive

Outcome logged for O=C1COCCN1c1ccc(NCc2cn(Cc3cccc4ccccc34)c3ccccc23)cc1 in this assay: inactive

Please share the test call associated with CCN(CC)CCCOc1ccc2c(c1)O/C(=C\c1cccc(OC)c1)C2=O . inactive

Check the results log: what was the call for C=C(C)[C@@H]1CC[C@]2(C(=O)NCCNCCNCCN)CC[C@]3(C)[C@H](CC[C@@H]4[C@@]5(C)CCC(=O)C(C)(C)[C@@H]5CC[C@]43C)[C@@H]12 ? inactive

# outcome recorded in this test, key = C=CCCCCCCCCC(=O)OC(C)C inactive

Can you look up the reported call for COc1ccc(-c2cc(-c3ccccc3)nc(NCCNc3ccnc4cc(Cl)ccc34)n2)cc1 for me? active
